test-target: T1, EV71-VP1-His (enterovirus 71 (EV71), UniProt Q66478 566-862, RED-tris-NTA dye on the His tag (in the MST only))
T1 chain: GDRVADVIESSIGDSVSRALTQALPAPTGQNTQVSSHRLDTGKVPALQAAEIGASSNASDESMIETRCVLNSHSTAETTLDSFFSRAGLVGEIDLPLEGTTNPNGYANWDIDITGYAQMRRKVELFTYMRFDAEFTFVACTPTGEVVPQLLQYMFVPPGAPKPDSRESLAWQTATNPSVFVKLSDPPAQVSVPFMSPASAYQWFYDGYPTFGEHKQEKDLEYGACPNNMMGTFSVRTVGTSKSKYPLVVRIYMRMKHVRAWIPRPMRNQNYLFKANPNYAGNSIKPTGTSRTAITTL
method-description: MST
metric: Kd (µM)
The response must be a number in µM with no trailing unit.

**Q:** I am curious: what Kd value has been reported for ZYG11B 1–58-GST (domain or fragment) MPEDQAGAAMEEASPYSLLDICLNFLTTHLEKFCSARQDGTLCLQEPGVFPQEVADRL ?
**A:** 5.55
